B1: HDV Ribozyme (parent)
chain: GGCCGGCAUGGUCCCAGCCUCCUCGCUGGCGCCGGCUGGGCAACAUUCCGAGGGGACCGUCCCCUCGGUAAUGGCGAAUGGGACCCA

Variants of: B1
test.name: self-cleavage, relative activity (ratio to wild type); higher = more cleavage; co-transcriptional
measured.property: self-cleavage
Simply state the number, no unit and no words.

GGCCGGCAUGGUCCCAGCCUCCUCGCUGGCGCCGGCUGGGCAACAUUCCGAGGGGACCGUCCCCUCCCUAAUGGCGAAUGGGACCCA [G67C G68C] = 0.566
GGCGGGCAUGGUCCCAGCCUCCUCGCUGGCGCCGGCUGGGCAACAUUCCGAGGGGACCGUCCGCUCGGUAAUGGCGAAUGGGACCCA [C4G C63G] = 0.0396

According to the records, this variant GGCCGGCAUUGUCCCAGCCUCCUCGCUGGCGCGGGCUGGGCAACAUUCCGAGGGGACCGUCCCCUCGGUAAUGGCGAAUGGGACCCA [G10U C33G] displays self-cleavage of 0.0511

Value of measured self-cleavage for the entry GGCCGGCAUGGUCCCAGCCUCCUCGCUGGCGCCGGCUGGGCAACAUUUCGAGAGGACCGUCCCCUCGGUAAUGGCGAAUGGGACCCA [C48U G53A] : 0.888

So for GGCCGGCAUGGUCCCAGCCUCCCCGCUGGCGCCGGCUGGGCAACAUUCCUAGGGGACCGUCCCCUCGGUAAUGGCGAAUGGGACCCA [U23C G50U] , the logged self-cleavage turned out to be 0.789

GET /value?item= GGCCGGCAUGGUCCCAGCCUCCUCGCUGGCGCCGGCUGGGCGACAUUCCGCGGGGACCGUCCCCUCGGUAAUGGCGAAUGGGACCCA [A42G A51C] &field=self-cleavage returns 0.831

Entry GGCCGGCAUGGUCCCAGCCUCCUCGCUGGCGCCGGAUGGGCAACAUUCCGAGGGGACCGUCCCCCCGGUAAUGGCGAAUGGGACCCA [C36A U65C] — recorded self-cleavage = 0.095

The variant GGCCGGCAUGGUCCCAGCCUCCUCGCUGGCGCCGGCUGGGCAACGUUCCGAGGGGACCGUCCCCUCGGUAAUGGGGAAUGGGACCCA [A45G C75G] showed self-cleavage equal to 0.0536

// GGCCGGCAUGGUCCCAGCCUCCUCGCUGGCGCCGGCUGGGCAACAUUCCGAGGGGACCGUCCCCUCGGUAAUGGCGAAUGGGACCAC [C86A A87C] : self-cleavage value = 0.855

# self-cleavage (variant: GGCCGGCAUGGUCCCAGCCUCCUCGCUGGCGCCGGCUGCGCAACAUUCCGAGGGGACCGUCUCCUCGGUAAUGGCGAAUGGGACCCA [G39C C62U] ) is 0.237

Record summary for GGCCGGCAUGGUCCCAGCCUCCCCGCUGGCGCCGGCUGGGCAACAUUCCGAGGGGACCGUCCCCUGGGUAAUGGCGAAUGGGACCCA [U23C C66G] : reported self-cleavage = 0.923

For reference, reported self-cleavage for GGCCGGCAUGGGCCCAGCCUCAUCGCUGGCGCCGGCUGGGCAACAUUCCGAGGGGACCGUCCCCUCGGUAAUGGCGAAUGGGACCCA [U12G C22A] stands at 0.277

self-cleavage reading for GACCGGCAUGGUCCCAGCCUCCUCGCUGGCGCCGGCUGGGCAACAUUCCGAGGGAACCGUCCCCUCGGUAAUGGCGAAUGGGACCCA [G2A G55A] : 0.191

GGCCGGCAUGGUCCCAGCCUCCUCGCUGGCGCCGGCUGGGCAACAUUCCAAGGGGACCGUCCCCUCGGUAAUGGCAAAUGGGACCCA [G50A G76A] yielded self-cleavage of 1.05

Record GGCCGGCAUGCUCCCAGCCUCCUCGCUGGCGCCGGCUGGGUAACAUUCCGAGGGGACCGUCCCCUCGGUAAUGGCGAAUGGGACCCA [G11C C41U] . Reported self-cleavage: 0.0831

The variant listed as GGCCGGCAUGGUCCCAGCCUCCUCGAUGGCGCCGGCUGGGCAACAUUCCGAUGGGACCGUCCCCUCGGUAAUGGCGAAUGGGACCCA [C26A G52U] has a reported self-cleavage of 0.798

Note to self: self-cleavage recorded for GGCCGGCAUGGUCCCAGCCUCCUCGCUGGCGCCGGCUGGGCAACAUUUCGAGGGGACCGUCCCCUCGGUAAUAGCGAAUGGGACCCA [C48U G73A] was 0.526

// sample GGCCGGCAUGGUCACAGCCUCCUCGCUGGCGCCGGCUGGGCAACAUUCCGGGGGGACCGUCCCCUCGGUAAUGGCGAAUGGGACCCA [C14A A51G] , its self-cleavage was 0.755
